B1: CRYL1 (parent)
chain: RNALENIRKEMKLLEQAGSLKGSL

Variants of: B1
Assay: protein stability index of a GFP-peptide fusion (GPS, HEK-293T) (PSI 1-6); higher = more stable;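 note: lentivirally expressed fusions sorted by FACS into six bins by GFP to DsRed ratio, PSI derived from sequencing read proportions per bin multiplied by bin number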
Details: c terminus: a fixed tail appended
resultType: protein stability index
Give a plain numeric answer without units written out.

# count of solved cases: 2
>>> measvalue("RNALENIRKLMKLLEQAGSLKGSL [E10L]")
2.44
>>> measvalue("RNALENIRKEWKLLEQAGSLKGSL [M11W]")
2.21

Q) Given the entry RNALENIRKEMKLLEQAGDLKGSL [S19D] , report its measured protein stability index.
A) 3.71

Q) Given the entry RNALENIRKEMKLLEQAGSLKGSK [L24K] , report its measured protein stability index.
A) 4.12

Q) Given the entry RNALENIRKEMKLLEQAGSLAGSL [K21A] , report its measured protein stability index.
A) 2.71

Q) Given the entry RNALENIRKEMKLTEQAGSLKGSL [L14T] , report its measured protein stability index.
A) 3.79

Q) Given the entry RNALENIRKPMKLLEQAGSLKGSL [E10P] , report its measured protein stability index.
A) 3.06

Q) Given the entry RDALENIRKEMKLLEQAGSLKGSL [N2D] , report its measured protein stability index.
A) 3.52

Q) Given the entry RNALENIRKEMKLLEGAGSLKGSL [Q16G] , report its measured protein stability index.
A) 3.7
